Give measured inhibition for each item. Keep answers brief.
# assayed.target: Serine/threonine-protein kinase Nek2 (Homo sapiens);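 further: reported values are mean percent inhibition of NEK2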
# experimental.setup: at 1 µM
Hey, just the number and the unit after it is fine.

Ask: Reported inhibition for `CN(C)CCCNc1nccc(-c2c(-c3ccc(F)cc3)nn3cc(C(F)(F)F)ccc23)n1` : what is it?
Result: 1.49%

Ask: Reported inhibition for `Cc1nnc(-c2ccc(C)c(-c3ccc(C(=O)NCc4ccc(Cl)cc4)cc3)c2)o1` : what is it?
Result: 3.25%

Ask: Reported inhibition for `COc1ccc(-c2ccc3c(NC(=O)C4CC4)n[nH]c3n2)cc1` : what is it?
Result: 1.4%

Ask: Reported inhibition for `COc1cc(Nc2ncc(-c3ccccc3)o2)cc(OC)c1OC` : what is it?
Result: -0.62%

Ask: Reported inhibition for `COc1cc(N2CCN(C(C)C)CC2)ccc1Nc1nc(Nc2ccc(F)cc2C(=O)NC[C@@H](O)CO)c2cc[nH]c2n1` : what is it?
Result: 5.19%

Ask: Reported inhibition for `c1ccc(-c2n[nH]cc2-c2ccnc(-c3ccc(OCCN4CCOCC4)cc3)c2)nc1` : what is it?
Result: -2.74%

Ask: Reported inhibition for `Fc1ccc(-c2ncn(C3CCNCC3)c2-c2ccnc(Oc3ccc(Oc4ccccc4)cc3)n2)cc1` : what is it?
Result: 3.38%

Ask: Reported inhibition for `C/C(Nc1ccc(S(N)(=O)=O)cc1)=C1/C(=O)Nc2ccccc21` : what is it?
Result: 0.19%

Ask: Reported inhibition for `NC(=O)c1cc(-c2ccc(F)cc2)cc(-c2ccncc2)c1N` : what is it?
Result: 3.75%

Ask: Reported inhibition for `CCC(=O)Nc1ccc(C)c(-c2ccc(C(=O)NCC3CC3)cc2)c1` : what is it?
Result: 0.77%

Attribution: ChEMBL document CHEMBL1961873
